Molecular target: T1, high affinity SIRP-α D1 variant CV1-3
T1 chain: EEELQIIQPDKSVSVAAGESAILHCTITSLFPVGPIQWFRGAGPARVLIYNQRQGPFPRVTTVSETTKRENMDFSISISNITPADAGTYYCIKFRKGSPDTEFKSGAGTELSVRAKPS
Assay: SPR, Langmuir fit
# key: entry, value: koff
# output: bare number, implied unit s⁻¹

>>> reported("S173 (scFv, V domains shown) VH: DVQLVESGGGVVRPGESLRLSCAASGFAFSDHDMSWVRQGPGEGLEWVAGISLRGGVTWYADSVKGRFTISRDNSKNTLYLRLFSLRTEDTAIYYCARESWNTFFDYWGLGTLVTVSS VL: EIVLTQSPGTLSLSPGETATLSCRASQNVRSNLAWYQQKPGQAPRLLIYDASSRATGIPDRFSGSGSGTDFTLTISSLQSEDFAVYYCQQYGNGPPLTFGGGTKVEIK")
0.00137

Proceeding to the next binder to report its koff.
For reference, reported koff for S189 (scFv, V domains shown) VH: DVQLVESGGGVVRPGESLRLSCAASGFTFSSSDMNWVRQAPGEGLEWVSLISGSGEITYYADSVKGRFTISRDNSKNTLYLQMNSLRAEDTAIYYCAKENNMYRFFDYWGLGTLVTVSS VL: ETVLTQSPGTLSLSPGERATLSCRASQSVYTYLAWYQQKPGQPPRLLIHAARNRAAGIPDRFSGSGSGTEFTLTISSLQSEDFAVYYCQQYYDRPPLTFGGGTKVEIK stands at 0.00228
